The reported numbers originate from patent US20250250357A1.

Property: OD450 at 0.001 nM; scope: individual binders
Biological target: T1, human MSLN-R1-his protein (human, UniProt Q13421 296-390)
T1 construct: Region 1 of human MSLN, His-tagged; also called human MSLN-R1 protein; hMSLN-R1-his; not shown: His tag
T1 chain: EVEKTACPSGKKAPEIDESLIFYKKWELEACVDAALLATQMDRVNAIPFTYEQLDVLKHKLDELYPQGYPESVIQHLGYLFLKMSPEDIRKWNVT
Experiment: ELISA, coated MSLN-R1;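 note: serially diluted chimeric antibodies bound to the coated, BSA-blocked plate for 2 h at 37 °C, with TMB colour read after acid stop and a negative control antibody alongside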
Kindly provide the numeric value in OD450 only, without the unit symbol.

S009-F2.16.10 (antibody, human IgG1, kappa, V domains shown, Human-murine chimeric antibody, human IgG1/kappa constant regions) VH: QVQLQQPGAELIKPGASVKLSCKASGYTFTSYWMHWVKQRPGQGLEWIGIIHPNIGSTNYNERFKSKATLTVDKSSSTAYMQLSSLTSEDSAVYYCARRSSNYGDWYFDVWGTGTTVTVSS VL: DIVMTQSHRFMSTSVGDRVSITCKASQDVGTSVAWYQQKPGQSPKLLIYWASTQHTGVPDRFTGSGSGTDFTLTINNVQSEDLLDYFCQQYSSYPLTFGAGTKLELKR : 0.06
S009-F2.21.4 (antibody, human IgG1, kappa, V domains shown, Human-murine chimeric antibody, human IgG1/kappa constant regions) VH: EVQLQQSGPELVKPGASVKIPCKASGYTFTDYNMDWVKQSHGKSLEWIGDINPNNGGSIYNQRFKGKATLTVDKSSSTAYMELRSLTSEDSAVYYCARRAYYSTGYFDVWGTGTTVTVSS VL: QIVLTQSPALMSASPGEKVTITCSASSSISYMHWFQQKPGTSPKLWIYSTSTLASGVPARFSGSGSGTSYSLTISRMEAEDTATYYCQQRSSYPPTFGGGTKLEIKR : 0.05
S009-F2.47.1 (antibody, human IgG1, kappa, V domains shown, Human-murine chimeric antibody, human IgG1/kappa constant regions) VH: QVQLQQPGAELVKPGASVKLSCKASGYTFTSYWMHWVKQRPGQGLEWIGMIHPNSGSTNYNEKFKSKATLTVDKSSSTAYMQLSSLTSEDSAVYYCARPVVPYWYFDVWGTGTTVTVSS VL: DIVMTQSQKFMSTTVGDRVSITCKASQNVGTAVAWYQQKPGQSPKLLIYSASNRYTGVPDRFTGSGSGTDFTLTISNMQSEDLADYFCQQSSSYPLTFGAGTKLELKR : 0.05

Please find the next binder below.
Endpoint output: OD450 at 0.001 nM of S009-F2.23.12 (antibody, human IgG1, kappa, V domains shown, Human-murine chimeric antibody, human IgG1/kappa constant regions) VH: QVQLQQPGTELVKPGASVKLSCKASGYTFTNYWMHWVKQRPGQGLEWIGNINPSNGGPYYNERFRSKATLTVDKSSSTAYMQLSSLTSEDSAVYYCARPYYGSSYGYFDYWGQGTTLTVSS VL: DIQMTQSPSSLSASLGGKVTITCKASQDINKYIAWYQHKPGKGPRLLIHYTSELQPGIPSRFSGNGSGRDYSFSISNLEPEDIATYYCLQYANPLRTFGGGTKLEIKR . Value?
0.05
